Entry source: paper PMC4019636

Test system: E. faecium ATCC 700221
assay info: Antimicrobial susceptibility assay (broth microdilution MIC)
Assay type: cell-based
condition parameters: Enterococcus faecium, ATCC700221; E. faecium ATCC 700221 (vancomycin-resistant); brain heart infusion broth, 18 h at 37°C; growth inhibited by ≥90%; read-out: MIC
endpoint name: MIC

Worked cases, MIC given:
COc1ccc2cc3[n+](cc2c1OCCCOc1ccc([N+](=O)[O-])cc1)CCc1cc2c(cc1-3)OCO2 = 8 µg/mL
COc1ccc2cc3[n+](cc2c1OCCCOc1ccccc1C)CCc1cc2c(cc1-3)OCO2 = 8 µg/mL
COc1ccc2cc3[n+](cc2c1OCCCCOc1ccccc1)CCc1cc2c(cc1-3)OCO2 = 8 µg/mL
COc1ccc2cc3[n+](cc2c1OC)CCc1cc2c(cc1-3)OCO2 [Berberine, Berberine chloride] = > 196 µg/mL
COc1ccc2cc3[n+](cc2c1OCCCBr)CCc1cc2c(cc1-3)OCO2 = > 196 µg/mL

Fill in the recorded MIC for this compound, with E. faecium ATCC 700221 as test system: COc1ccc(OCCCOc2c(OC)ccc3cc4[n+](cc23)CCc2cc3c(cc2-4)OCO3)cc1
16 µg/mL

Fill in the recorded MIC for this compound, with E. faecium ATCC 700221 as test system: COc1ccc2cc3[n+](cc2c1OCCCOc1ccc(Cl)cc1)CCc1cc2c(cc1-3)OCO2
4 µg/mL

Fill in the recorded MIC for this compound, with E. faecium ATCC 700221 as test system: COc1ccc2cc3[n+](cc2c1OCCCOc1ccccc1)CCc1cc2c(cc1-3)OCO2
8 µg/mL

====

System: S. aureus ATCC 29247
assay info: Antimicrobial susceptibility assay (broth microdilution MIC)
Type: cell-based
condition parameters: Staphylococcus aureus, ATCC29247; S. aureus ATCC 29247 (ampicillin-resistant); 18 h at 37°C; growth inhibited by ≥90%; read-out: MIC
This listing pairs molecules with measured MIC.
Please state the figure in µg/mL; there is no need to write the unit.

CC1(C)S[C@@H]2[C@H](NC(=O)[C@H](N)c3ccccc3)C(=O)N2[C@H]1C(=O)O [Ampicillin, reference compound] = 48

Any idea what MIC was measured for COc1ccc2cc3[n+](cc2c1OCCCOc1ccc([N+](=O)[O-])cc1)CCc1cc2c(cc1-3)OCO2 ?
2

Any idea what MIC was measured for COc1ccc(OCCCOc2c(OC)ccc3cc4[n+](cc23)CCc2cc3c(cc2-4)OCO3)cc1 ?
8

Any idea what MIC was measured for COc1ccc2cc3[n+](cc2c1OCCCOc1ccccc1C)CCc1cc2c(cc1-3)OCO2 ?
4

Any idea what MIC was measured for COc1ccc2cc3[n+](cc2c1OCCCOc1ccc(Cl)cc1)CCc1cc2c(cc1-3)OCO2 ?
2

Any idea what MIC was measured for COc1ccc2cc3[n+](cc2c1OCCCOc1ccccc1)CCc1cc2c(cc1-3)OCO2 ?
4

Any idea what MIC was measured for COc1ccc2cc3[n+](cc2c1OCCCBr)CCc1cc2c(cc1-3)OCO2 ?
112

Any idea what MIC was measured for COc1ccc2cc3[n+](cc2c1OC)CCc1cc2c(cc1-3)OCO2 [Berberine, Berberine chloride] ?
128

Any idea what MIC was measured for COc1ccc2cc3[n+](cc2c1OCCCCOc1ccccc1)CCc1cc2c(cc1-3)OCO2 ?
4
